Data provenance is the METLIN SMRT retention time set (Domingo-Almenara et al. 2019).

- test: gradient 5% acetonitrile 3 min, to 50% in 2 min, to 85% in 15 min, held 3 min, 100 µL/min
- stated-conditions: column: Zorbax Extend-C18 2.1 x 50 mm; eluents: water / acetonitrile, 0.1% formic acid
measured-quantity: RP-LC retention time (s)

1. CC(C)n1cnc2cc(CNC(=O)c3ccoc3)ccc21
2. COc1ccc(NC(=O)C2CCCN2S(=O)(=O)c2cc3c(cc2C)NC(=O)C(C)O3)cc1Cl (centres undefined)
For this pair, 1 and 2 , which shows a numerically higher RP-LC retention time? Refer to your chosen item by its label in the answer.
2

* * *

- test: gradient 5% acetonitrile 3 min, to 50% in 2 min, to 85% in 15 min, held 3 min, 100 µL/min
- stated-conditions: column: Zorbax Extend-C18 2.1 x 50 mm; eluents: water / acetonitrile, 0.1% formic acid
measured-quantity: RP-LC retention time (s)

Here's what some known entries look like.
COc1cccc(NS(=O)(=O)c2c(C)nn(-c3ccc(-c4ccc(C)cc4)nn3)c2C)c1 ... 1080
Cc1oc(C2CCN(S(=O)(=O)c3cc(F)ccc3F)CC2)nc1C(=O)N(C)C ... 816
Cc1ccccc1N1C(=O)CN(S(=O)(=O)c2ccccc2)CC1(C)C(=O)NC1CCCC1 (centres undefined) ... 920
COc1ccc2c(c1)c(CN1C[C@@H](CO)[C@H](c3nc(C)no3)C1)cn2C ... 555
O=C(Cc1c[nH]c2ccccc12)NCCc1c[nH]c2ccc(Cl)cc12 ... 857

a. CN(C)c1ccc(CNC(=O)c2nnc(-c3ccc(S(=O)(=O)N4CCCC4)cc3)o2)cc1
b. Cc1cccc(NC(=O)N2CCc3nc(-c4ccc(Cl)cc4)ncc3C2)c1
Which has the smaller recorded RP-LC retention time, a or b ? Output the label that corresponds to your choice.
a
(a: 688 s, b: 1080 s)

* * *

- test: gradient 5% acetonitrile 3 min, to 50% in 2 min, to 85% in 15 min, held 3 min, 100 µL/min
- stated-conditions: column: Zorbax Extend-C18 2.1 x 50 mm; eluents: water / acetonitrile, 0.1% formic acid
measured-quantity: RP-LC retention time (s)

Consider the reported RP-LC retention time for these compounds:
Cc1cnc(C2CN(Cc3ccc(C(F)(F)F)cc3)C2)n1Cc1ccccc1 ... 639
O=S(=O)(Nc1cccn2c(C3CCC3)nnc12)c1cccc2nsnc12 ... 719
NC(=O)c1ccc(-n2cccc2)nc1 ... 650
Cc1cc(NC(=O)Cn2c(C)cc(-c3nnc(C4CCC4)o3)c2C)ccc1F ... 934
CCN(C(=O)C1CCC(C)CC1)c1nc(-c2ccccc2)cs1 (stereo not given) ... 838
O=C(CCc1c[nH]c2ccccc12)N1CC(n2ccnc2)C1 ... 588
COCCn1ccc2nc(C)c(C(=O)N3CCN(c4ccccn4)CC3)cc2c1=O ... 554
COc1cccc(C(=O)CSc2ccc(NC(=O)C3CC3)nn2)c1 ... 797
CCOc1ccccc1-c1noc(CN2C(=O)COc3ccc(C)cc32)n1 ... 1030
Cc1ccc(S(=O)(=O)N2CCCC(CCC(=O)N3CCOCC3)C2)cc1 (stereo not given) ... 814

a. O=C(Cn1c(-c2ccccc2F)nc2ccccc21)N1CCOCC1
b. CSc1ccc(CCNC(=O)C2CCCN(C(=O)c3cc(C)cc(C)c3)C2)cc1 (stereo not given)
Hey, between a and b which has a smaller measured RP-LC retention time? Reply briefly: the label of your chosen item.
a

1. Cc1ccc(CNC(=O)C2(c3ccc(NS(C)(=O)=O)cc3)CCCCC2)cc1
2. COc1ccc(CNC(=O)NCC2(CO)CC2)cc1OC
Hi there! Just curious which has the higher RP-LC retention time between 1 and 2 . Please indicate the selected item by its label.
1
